Where these numbers come from: the CheMixHub viscosity set

Exercise: state measured viscosity for each of the compounds provided.
assay: xn = mol fraction of the nth substance listed; settings: 303.15 K; 101.33 kPa; x1 = 0.5
Report only the number, with the unit mPa·s understood.

**Query** Given COc1ccccc1 + CCCCO , state its recorded viscosity.
**Result** 1.079

**Query** Reported viscosity, compound COc1ccccc1 + CCCCCCCO : ____
**Result** 1.701

**Query** Which measured viscosity value corresponds to COc1ccccc1 + CCC(C)O ?
**Result** 1.001

**Query** Can you look up the measured viscosity of COc1ccccc1 + CC(C)CO for me?
**Result** 1.011

**Query** # lookup: viscosity of COc1ccccc1 + CCCCCCO
**Result** 1.423

**Query** Report viscosity for COc1ccccc1 + CCCCCO please.
**Result** 1.26

**Query** I have this compound here, COc1ccccc1 + CCCCCCCCO , and I need its recorded viscosity.
**Result** 1.966
